# key: entry, value: furin cleavage Z-score
Molecular target: furin, P09958;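 note: purified furin at 1:10 enzyme:substrate in 50 mM HEPES pH 7.5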
Sequence (P09958 whole entry): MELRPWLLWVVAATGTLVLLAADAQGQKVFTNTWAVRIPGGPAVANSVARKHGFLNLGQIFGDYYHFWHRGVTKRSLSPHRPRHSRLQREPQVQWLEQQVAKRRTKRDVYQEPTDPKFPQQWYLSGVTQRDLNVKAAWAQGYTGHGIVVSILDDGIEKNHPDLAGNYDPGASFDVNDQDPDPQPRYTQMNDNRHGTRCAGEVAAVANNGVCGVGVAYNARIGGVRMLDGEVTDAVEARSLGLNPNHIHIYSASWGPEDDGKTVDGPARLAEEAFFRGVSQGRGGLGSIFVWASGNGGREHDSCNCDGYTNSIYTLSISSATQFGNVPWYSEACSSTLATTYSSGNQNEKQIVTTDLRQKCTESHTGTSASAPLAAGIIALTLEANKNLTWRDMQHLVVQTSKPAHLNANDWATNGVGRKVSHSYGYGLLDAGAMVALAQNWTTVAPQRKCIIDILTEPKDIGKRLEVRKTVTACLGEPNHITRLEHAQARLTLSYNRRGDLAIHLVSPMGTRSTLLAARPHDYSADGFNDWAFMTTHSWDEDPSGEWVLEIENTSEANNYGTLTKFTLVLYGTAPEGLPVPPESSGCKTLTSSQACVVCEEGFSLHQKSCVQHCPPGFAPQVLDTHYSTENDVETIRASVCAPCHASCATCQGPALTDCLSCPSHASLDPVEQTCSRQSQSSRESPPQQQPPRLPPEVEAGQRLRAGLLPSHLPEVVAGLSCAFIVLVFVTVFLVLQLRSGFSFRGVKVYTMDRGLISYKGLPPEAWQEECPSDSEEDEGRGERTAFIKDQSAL
Experiment: furin cleavage Z-score vs untreated control; higher = more cleavage, active = 3.5 or more, inactive = 1 or less, 8 variable residues between constant flanks
Settings: 15 min
Some of the results follow. The hit rate among all sequences tested is not known here.
readout-type: furin cleavage Z-score

item-sequence: CAIREVPCHRAGNASASA [HC2424]
readout-type: furin cleavage Z-score
meas-value: 1.33
--
item-sequence: CALDRRSQRSAGNASASA [FS-910]
readout-type: furin cleavage Z-score
meas-value: 3.02
--
item-sequence: CAGVVCAAILAGNASASA [HC1108]
readout-type: furin cleavage Z-score
meas-value: 1.01
